Data provenance: patent US4581359A

assay: clinical; assay type: in vivo; conditions: human, plasma, iv, 1000 mg, after 20-minute intravenous infusion of 1000 mg; read-out: Maximum plasma concentration, range
readout-kind: Cmax

compound="Cn1c(=O)c2c(ncn2CC(O)CO)n(C)c1=O (stereo not shown) [dyphylline, dihydroxypropyl theophylline]" readout_value="18400 to 46800 ng/mL"

----------
experiment: Theophylline (aminophylline) intravenous infusion in rabbits: blood concentration, pharmacokinetics, toxicity (Example 1); type: in vivo, female New Zealand White rabbits; conditions: rabbit, in vivo, iv, 40 mg/kg, average total volume of distribution of theophylline given alone
readout-kind: Vd

structure_string=Cn1c(=O)c2[nH]cnc2n(C)c1=O readout_kind=Vd readout_value="~0.59 L/kg"
